- Test Name: Tmax in Sprague-Dawley rat at 0.5 mg/kg, iv administered as single dose by LC-MS/MS analysis
- Format: ADME, organism-based
- Particulars: in vivo
Quantity Kind: Tmax (min)
Value expressed in min; do not type the unit.

Would you mind telling me what Tmax value was observed for "Fc1ccc(N2CCN(CCCc3c[nH]c4ccc(F)cc34)CC2)c(-c2ccccc2)c1" ? 6

###

- Experimental System: Voltage-gated inwardly rectifying potassium channel KCNH2 (Homo sapiens, UniProt Q12809)
- Sequence (Q12809 whole entry): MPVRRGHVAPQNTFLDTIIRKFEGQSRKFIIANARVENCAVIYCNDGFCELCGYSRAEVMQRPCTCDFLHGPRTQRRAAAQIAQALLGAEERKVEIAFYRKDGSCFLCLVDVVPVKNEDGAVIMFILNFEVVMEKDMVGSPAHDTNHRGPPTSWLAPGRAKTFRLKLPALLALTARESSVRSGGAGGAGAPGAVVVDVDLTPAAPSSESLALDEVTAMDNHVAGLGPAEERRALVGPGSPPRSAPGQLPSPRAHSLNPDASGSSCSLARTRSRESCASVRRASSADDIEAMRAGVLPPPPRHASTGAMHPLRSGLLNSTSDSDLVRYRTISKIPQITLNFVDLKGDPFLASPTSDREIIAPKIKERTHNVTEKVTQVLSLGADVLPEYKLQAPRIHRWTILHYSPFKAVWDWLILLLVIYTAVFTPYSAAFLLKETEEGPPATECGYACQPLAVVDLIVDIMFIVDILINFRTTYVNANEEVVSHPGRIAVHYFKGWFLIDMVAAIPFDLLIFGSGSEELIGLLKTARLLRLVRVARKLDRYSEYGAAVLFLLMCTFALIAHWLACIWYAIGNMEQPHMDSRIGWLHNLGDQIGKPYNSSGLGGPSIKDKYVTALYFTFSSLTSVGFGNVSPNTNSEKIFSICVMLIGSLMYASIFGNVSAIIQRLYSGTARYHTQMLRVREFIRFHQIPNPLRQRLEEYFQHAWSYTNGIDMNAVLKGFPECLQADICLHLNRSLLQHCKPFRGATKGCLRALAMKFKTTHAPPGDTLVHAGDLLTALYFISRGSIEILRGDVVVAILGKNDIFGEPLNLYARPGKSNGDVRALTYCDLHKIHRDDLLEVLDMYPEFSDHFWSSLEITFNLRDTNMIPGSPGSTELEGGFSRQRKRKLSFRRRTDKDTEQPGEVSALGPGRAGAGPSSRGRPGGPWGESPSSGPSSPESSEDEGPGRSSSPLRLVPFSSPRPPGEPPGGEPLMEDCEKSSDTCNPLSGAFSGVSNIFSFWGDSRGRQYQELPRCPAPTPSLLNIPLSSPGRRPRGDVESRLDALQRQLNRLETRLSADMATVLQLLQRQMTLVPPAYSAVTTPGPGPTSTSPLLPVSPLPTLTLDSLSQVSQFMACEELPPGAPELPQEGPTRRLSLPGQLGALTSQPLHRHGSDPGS
- Test Name: Inhibition of human ERG expressed in CHO-K1 cells assessed as reduction in tail current amplitude at -80 mV holding potential after 2 mins by path clamp assay
Quantity Kind: pIC50
Please treat pIC50 as minus the base-10 logarithm of the molar concentration.

I'm curious: which pIC50 was measured for "Fc1ccc(N2CCN(CCCc3c[nH]c4ccc(F)cc34)CC2)c(-c2ccccc2)c1" tested on Voltage-gated inwardly rectifying potassium channel KCNH2 (Homo sapiens, UniProt Q12809)? 4.78

The measurements presented in this section are drawn from ChEMBL document CHEMBL4251632.
